These measurements were taken from ChEMBL document CHEMBL1926598.

System: Rattus norvegicus
Assay: Antiinflammatory activity in albino rat assessed as inhibition of carrageenan-induced paw edema at 100 mg/kg, po administered 30 mins prior to challenge measured after 1 hr relative to untreated control
Type: functional
Value Kind: inhibition in vivo at 100 mg/kg (%)
The answer is to be given in %; state only the numeric part.

Query :: Record request: inhibition in vivo at 100 mg/kg value, item O=C(CBr)Nc1ccc(C(=O)/C=C/c2ccc3c(c2)OCO3)cc1
Result :: 40

Query :: Record request: inhibition in vivo at 100 mg/kg value, item CC(Br)C(=O)Nc1ccc(C(=O)/C=C/c2ccc3c(c2)OCO3)cc1 (stereo not given)
Result :: 37

Query :: Record request: inhibition in vivo at 100 mg/kg value, item CC(=O)c1ccc(OCC(=O)Nc2ccc(C(=O)/C=C/c3ccco3)cc2)cc1
Result :: 28

Query :: Record request: inhibition in vivo at 100 mg/kg value, item C/C(=N/O)c1ccc(OCC(=O)Nc2ccc(C(=O)/C=C/c3ccco3)cc2)cc1
Result :: 36

Query :: Record request: inhibition in vivo at 100 mg/kg value, item Nc1ccc(C(=O)/C=C/c2ccc3c(c2)OCO3)cc1
Result :: 32

###

For each entry below, report its UI value.
Test system: Rattus norvegicus
Experiment: Gastric toxicity in albino rat assessed as ulcer index at 100 mg/kg, po after 5 hrs
Format: organism-based
Parameters: dose 100 mg/kg, route oral
Conditions: in vivo
No unit in the answer, only the number.

Query :: Record request: UI value, item CC(O[N+](=O)[O-])C(=O)Nc1ccc(C(=O)/C=C/c2ccc(Cl)cc2)cc1 (centres undefined)
Result :: 3.5

Query :: Record request: UI value, item CC(O[N+](=O)[O-])C(=O)Nc1ccc(C(=O)/C=C/c2ccco2)cc1 (centres undefined)
Result :: 5.7

Query :: Record request: UI value, item CC(=O)c1ccc(OCC(=O)Nc2ccc(C(=O)/C=C/c3ccc4c(c3)OCO4)cc2)cc1
Result :: 11.2

Query :: Record request: UI value, item O=C(CO[N+](=O)[O-])Nc1ccc(C(=O)/C=C/c2ccc3c(c2)OCO3)cc1
Result :: 3

Query :: Record request: UI value, item O=C(CBr)Nc1ccc(C(=O)/C=C/c2ccc(Cl)cc2)cc1
Result :: 21.4

Query :: Record request: UI value, item CC(Br)C(=O)Nc1ccc(C(=O)/C=C/c2ccc3c(c2)OCO3)cc1 (centres undefined)
Result :: 18

Query :: Record request: UI value, item O=C(COCc1c(-c2ccccc2)no[n+]1[O-])Nc1ccc(C(=O)/C=C/c2ccc3c(c2)OCO3)cc1
Result :: 1.3

Query :: Record request: UI value, item COc1ccc(/C=C/C(=O)c2ccc(NC(=O)C(C)Br)cc2)cc1 (centres undefined)
Result :: 30.1

Query :: Record request: UI value, item COc1ccc(/C=C/C(=O)c2ccc(NC(=O)COCc3c(-c4ccccc4)no[n+]3[O-])cc2)cc1
Result :: 2

###

Tested on: Rattus norvegicus
Test: Antiinflammatory activity in albino rat assessed as inhibition of carrageenan-induced paw edema at 100 mg/kg, po administered 30 mins prior to challenge measured after 1 hr relative to untreated control
Assay type: functional
Value Kind: inhibition in vivo at 100 mg/kg (%)
The answer is to be given in %; state only the numeric part.

Query :: Record request: inhibition in vivo at 100 mg/kg value, item COc1ccc(/C=C/C(=O)c2ccc(NC(=O)C(C)O[N+](=O)[O-])cc2)cc1 (stereo not drawn)
Result :: 43

Query :: Record request: inhibition in vivo at 100 mg/kg value, item CC(=O)c1ccc(OCC(=O)Nc2ccc(C(=O)/C=C/c3ccc4c(c3)OCO4)cc2)cc1
Result :: 37

Query :: Record request: inhibition in vivo at 100 mg/kg value, item COc1ccc(/C=C/C(=O)c2ccc(NC(=O)COCc3c(-c4ccccc4)no[n+]3[O-])cc2)cc1
Result :: 30

Query :: Record request: inhibition in vivo at 100 mg/kg value, item COc1ccc(/C=C/C(=O)c2ccc(NC(=O)CBr)cc2)cc1
Result :: 37

Query :: Record request: inhibition in vivo at 100 mg/kg value, item Nc1ccc(C(=O)/C=C/c2ccco2)cc1
Result :: 33

Query :: Record request: inhibition in vivo at 100 mg/kg value, item O=C(CO[N+](=O)[O-])Nc1ccc(C(=O)/C=C/c2ccc3c(c2)OCO3)cc1
Result :: 38

Query :: Record request: inhibition in vivo at 100 mg/kg value, item C/C(=N/O)c1ccc(OCC(=O)Nc2ccc(C(=O)/C=C/c3ccc(Cl)cc3)cc2)cc1
Result :: 39

Query :: Record request: inhibition in vivo at 100 mg/kg value, item O=C(COCc1c(-c2ccccc2)no[n+]1[O-])Nc1ccc(C(=O)/C=C/c2ccc3c(c2)OCO3)cc1
Result :: 34

Query :: Record request: inhibition in vivo at 100 mg/kg value, item CC(Br)C(=O)Nc1ccc(C(=O)/C=C/c2ccc(Cl)cc2)cc1 (stereo not drawn)
Result :: 39

Query :: Record request: inhibition in vivo at 100 mg/kg value, item COc1ccc2c(c1)c(CC(=O)O)c(C)n2C(=O)c1ccc(Cl)cc1
Result :: 56

Query :: Record request: inhibition in vivo at 100 mg/kg value, item Nc1ccc(C(=O)/C=C/c2ccc(Cl)cc2)cc1
Result :: 41

Query :: Record request: inhibition in vivo at 100 mg/kg value, item COc1ccc(/C=C/C(=O)c2ccc(NC(=O)COc3ccc(C(C)=O)cc3)cc2)cc1
Result :: 28

Query :: Record request: inhibition in vivo at 100 mg/kg value, item CC(=O)c1ccc(OCC(=O)Nc2ccc(C(=O)/C=C/c3ccc(Cl)cc3)cc2)cc1
Result :: 43

Query :: Record request: inhibition in vivo at 100 mg/kg value, item O=C(CBr)Nc1ccc(C(=O)/C=C/c2ccc(Cl)cc2)cc1
Result :: 44

Query :: Record request: inhibition in vivo at 100 mg/kg value, item CC(O[N+](=O)[O-])C(=O)Nc1ccc(C(=O)/C=C/c2ccc3c(c2)OCO3)cc1 (stereo not drawn)
Result :: 45

Query :: Record request: inhibition in vivo at 100 mg/kg value, item CC(O[N+](=O)[O-])C(=O)Nc1ccc(C(=O)/C=C/c2ccc(Cl)cc2)cc1 (stereo not drawn)
Result :: 45

Query :: Record request: inhibition in vivo at 100 mg/kg value, item CC(O[N+](=O)[O-])C(=O)Nc1ccc(C(=O)/C=C/c2ccco2)cc1 (stereo not drawn)
Result :: 41

Query :: Record request: inhibition in vivo at 100 mg/kg value, item O=C(COCc1c(-c2ccccc2)no[n+]1[O-])Nc1ccc(C(=O)/C=C/c2ccc(Cl)cc2)cc1
Result :: 38

###

Assay: Induction of nitric oxide release at 0.1 mM after 1 hr in phosphate buffer at pH 7.4 by Griess assay
Type: physicochemical
Conditions: pH 7.4, 1 h, 100 µM
For each entry below, report its Activity value.
The answer is to be given in mol/mol; state only the numeric part.

Query :: Record request: Activity value, item COc1ccc(/C=C/C(=O)c2ccc(NC(=O)COc3ccc(/C(C)=N\O)cc3)cc2)cc1
Result :: 0.11

Query :: Record request: Activity value, item CC(O[N+](=O)[O-])C(=O)Nc1ccc(C(=O)/C=C/c2ccco2)cc1 (configuration not stated)
Result :: 0.09

Query :: Record request: Activity value, item O=C(COCc1c(-c2ccccc2)no[n+]1[O-])Nc1ccc(C(=O)/C=C/c2ccc3c(c2)OCO3)cc1
Result :: 0.5

Query :: Record request: Activity value, item COc1ccc(/C=C/C(=O)c2ccc(NC(=O)CO[N+](=O)[O-])cc2)cc1
Result :: 0.27

Query :: Record request: Activity value, item COc1ccc(/C=C/C(=O)c2ccc(NC(=O)COCc3c(-c4ccccc4)no[n+]3[O-])cc2)cc1
Result :: 0.11

Query :: Record request: Activity value, item COc1ccc(/C=C/C(=O)c2ccc(NC(=O)C(C)O[N+](=O)[O-])cc2)cc1 (configuration not stated)
Result :: 0.11

Query :: Record request: Activity value, item O=C(COCc1c(-c2ccccc2)no[n+]1[O-])Nc1ccc(C(=O)/C=C/c2ccc(Cl)cc2)cc1
Result :: 0.55

###

Tested on: Rattus norvegicus
Assay: Antiinflammatory activity in albino rat assessed as inhibition of carrageenan-induced paw edema at 100 mg/kg, po administered 30 mins prior to challenge measured after 4 hrs relative to untreated control
Type: functional
Value Kind: inhibition in vivo at 100 mg/kg (%)
The answer is to be given in %; state only the numeric part.

Query :: Form: Entry = COc1ccc(/C=C/C(=O)c2ccc(NC(=O)CBr)cc2)cc1 | System = Rattus norvegicus | inhibition in vivo at 100 mg/kg = ____
Result :: 41

Query :: Form: Entry = COc1ccc(/C=C/C(=O)c2ccc(NC(=O)COc3ccc(C(C)=O)cc3)cc2)cc1 | System = Rattus norvegicus | inhibition in vivo at 100 mg/kg = ____
Result :: 33

Query :: Form: Entry = O=C(CBr)Nc1ccc(C(=O)/C=C/c2ccc3c(c2)OCO3)cc1 | System = Rattus norvegicus | inhibition in vivo at 100 mg/kg = ____
Result :: 48

Query :: Form: Entry = O=C(CBr)Nc1ccc(C(=O)/C=C/c2ccco2)cc1 | System = Rattus norvegicus | inhibition in vivo at 100 mg/kg = ____
Result :: 33

Query :: Form: Entry = CC(=O)c1ccc(OCC(=O)Nc2ccc(C(=O)/C=C/c3ccco3)cc2)cc1 | System = Rattus norvegicus | inhibition in vivo at 100 mg/kg = ____
Result :: 39
